System: Mycoplasma hyopneumoniae S5972
Experiment: MIC, broth-dilution microtiter test (Table X)
Assay type: cell-based
Conditions: Mesomycoplasma hyopneumoniae, read-out: MIC
outcomeMeasure: MIC (µg/mL)
Number only, in µg/mL; omit the unit.

Some solved cases for reference:
Q: For the molecule shown here, CCC1OC(=O)CC(O)C(C)C(OC2OC(C)C(OC3CC(C)(O)C(O)C(C)O3)C(N(C)C)C2O)C(CCN2CC3CCC(CC3)C2)CC(C)C(=O)C=CC(C)=CC1COC1OC(C)C(O)C(OC)C1OC (stereo not drawn) [Compound T13] , give the reported MIC.
A: 25

Q: What does the record list as MIC for CCC1OC(=O)CC(O)C(C)C(OC2OC(C)C(O)C(N(C)C)C2O)C(CCN2CCc3ccccc32)CC(C)C(=O)C=CC(C)=CC1COC1OC(C)C(O)C(OC)C1OC (stereo not drawn) [Compound D42] ?
A: 0.097

Proceed to the following item.
Q: What value of MIC has been reported for the following molecule? CCC1OC(=O)CC(O)C(C)C(OC2OC(C)C(O)C(N(C)C)C2O)C(CCN2C[C@H](C)C[C@H](C)C2)CC(C)C(=O)C=CC(C)=CC1COC1OC(C)C(O)C(OC)C1OC (stereo partly drawn) [Compound D34]
A: 0.78

----------
Test system: Escherichia coli TEM
Experiment: MIC, standard agar-dilution assay (Table IX)
Assay type: cell-based
Conditions: read-out: MIC
Listed molecules paired with reported MIC
Report the value in µg/mL with no unit label.

Sample records with MIC:
Q: Given CCC1OC(=O)CC(O)C(C)C(OC2OC(C)C(O)C(N(C)C)C2O)C(CCN2CCCCCCCCCCCC2)CC(C)C(=O)C=CC(C)=CC1COC1OC(C)C(O)C(OC)C1OC (stereo not shown) [Compound D10] , state its recorded MIC.
A: 8

Q: What MIC value was documented for this molecule, CCC1OC(=O)CC(O)C(C)C(OC2OC(C)C(O)C(N(C)C)C2O)C(CCN2CCCC23CCCCC3)CC(C)C(=O)C=CC(C)=CC1COC1OC(C)C(O)C(OC)C1OC (stereo not shown) [Compound D19] ?
A: 32

Q: Value lookup for MIC; key = CCC1OC(=O)CC(O)C(C)C(OC2OC(C)C(O)C(N(C)C)C2O)C(CCN2CCc3ccccc3C2)CC(C)C(=O)C=CC(C)=CC1COC1OC(C)C(O)C(OC)C1OC (stereo not shown) [Compound D12]
A: 64

Q: Which MIC is listed for CCC1OC(=O)CC(O)C(C)C(OC2OC(C)C(O)C(N(C)C)C2O)C(CCN2CCCCC2)CC(C)C(=O)C=CC(C)=CC1COC1OC(C)C(O)C(OC)C1OC (stereo not shown) [Compound D2, 20-DH-DO-20-(piperidin-1-yl)desmycosin] ?
A: 16

Q: Entry CCC1OC(=O)CC(O)C(C)C(OC2OC(C)C(O)C(N(C)C)C2O)C(CCN2CCC(Cc3ccccc3)CC2)CC(C)C(=O)C=CC(C)=CC1COC1OC(C)C(O)C(OC)C1OC (stereo not shown) [Compound D27] has what MIC?
A: 32

# input for lookup
Q: # input molecule: CCC1OC(=O)CC(O)C(C)C(OC2OC(C)C(O)C(N(C)C)C2O)C(CCN2CC3CCC(CC3)C2)CC(C)C(=O)C=CC(C)=CC1COC1OC(C)C(O)C(OC)C1OC (stereo not shown) [Compound D14] ; wanted: its MIC
A: 16
